experiment: Pharmacokinetic evaluation of liquid bevirimat dosage forms, oral gavage, male Cynomolgus monkeys; conditions: male, cynomolgus monkey, in vivo, po, 50 mg/monkey, Plasma Concentration, PG/glycerin/Vitamin ETPGS/Tween80/Plasdone C15 formulation; 8.0 hr; AVG
Measured Endpoint: concentration at 8 h (ng/mL)
Respond with the bare value in ng/mL.

Req: Check the records and state concentration at 8 h for C=C(C)[C@@H]1CC[C@]2(C(=O)O)CC[C@]3(C)[C@H](CC[C@@H]4[C@@]5(C)CC[C@H](OC(=O)CC(C)(C)C(=O)O)C(C)(C)[C@@H]5CC[C@]43C)[C@@H]12 [Bevirimat]
Resp: 21000
